Data provenance: the DeepSol protein solubility set

assay: soluble on expression in E. coli; label from the status in PepcDB or PDB records
Reported Metric: soluble on expression in E. coli

Sequence Code	Result
MKVGVVGTGFVGSTAAFALVLRGSCSELVLVDRDEDRAQAEAEDIAHAAPVSHGTRVWHGGHSELADAQVVILTAGANQKPGESRLDLLEKNADIFRELVPQITRAAPDAVLLVTSNPVDLLTDLATQLAPGQPVIGSGTVLDSARFRHLMAQHAGVDGTHAHGYVLGEHGDSEVLAWSSAMVAGMPVADFMQAQNLPWNEQVRAKIDEGTRNAAASIIEGKRATYYGIGAALARITEAVLRDRRAVLTVSAPTPEYGVSLSLPRVVGRQGVLSTLHPKLTGDEQQKLEQSAGVLRGFKQQLGL	soluble
SLALSSPILKEILIEAPSYAPNSFTFDSTNKGFYTSVQDGRVMKYEGPNSGFVDFAYASPYWNKAFCENSTDAEKRPLCGRTYDISYNLQNNQMYIVDCYYHLSVVGSEGGHATQLATSVDGVPFKWLYAVTVDQRTGIVYFTDVSTLYDDRGVQQIMDTSDKTGRLMKYDPSTKETTLLMKELHVPGGAEVSADSSFVLVAEFLSHQIVKYWLEGPKKGTAEVLVKIPNPGNIKRNADGHFWVSSSEELDGNMHGRVDPKGIKFDEFGNILEVIPLPPPFAGEHFEQIQEHDGLLYIGTLFHGSVGILVYDKKGNSFVSSH	soluble
